- system.name: Cytochrome P450 2D6 (Homo sapiens)
- Sequence (P10635 whole entry): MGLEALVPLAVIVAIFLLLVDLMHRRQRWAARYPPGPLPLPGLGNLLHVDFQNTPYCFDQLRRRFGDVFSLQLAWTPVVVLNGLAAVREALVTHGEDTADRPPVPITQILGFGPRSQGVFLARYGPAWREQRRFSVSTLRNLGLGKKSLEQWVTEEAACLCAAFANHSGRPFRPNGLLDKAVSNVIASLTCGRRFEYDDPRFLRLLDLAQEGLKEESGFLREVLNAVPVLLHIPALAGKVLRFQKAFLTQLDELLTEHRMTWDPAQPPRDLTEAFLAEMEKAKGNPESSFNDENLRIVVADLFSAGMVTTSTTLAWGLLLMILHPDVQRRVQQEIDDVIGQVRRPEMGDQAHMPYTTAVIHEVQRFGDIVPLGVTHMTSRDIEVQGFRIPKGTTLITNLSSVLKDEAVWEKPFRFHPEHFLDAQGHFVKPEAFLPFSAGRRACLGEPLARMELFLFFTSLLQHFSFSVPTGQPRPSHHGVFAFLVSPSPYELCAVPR
readout.label: IC50

Enquiry: Let me know recorded IC50 for Cn1nc(Cc2ccc(NS(N)(=O)=O)cc2)c2ccccc2c1=O , thanks.
Return: > 10 µM

----------
- assay.procedure: Metabolic stability in human liver microsome assessed as parent compound remaining measured after 30 mins by LC/MS analysis
- Format: ADME
- measurement.parameters: liver microsomes, read-out: Stability
readout.label: remaining at 0.5 h (%)
Kindly answer with a numeric value in %, unit omitted.

Enquiry: Let me know recorded remaining at 0.5 h for Cn1nc(Cc2ccc(NS(N)(=O)=O)cc2)c2ccccc2c1=O , thanks.
Return: 87

----------
readout.label: IC50

Enquiry: Answer briefly: IC50 recorded on Cytochrome P450 3A4 (Homo sapiens) for Cn1nc(Cc2ccc(NS(N)(=O)=O)cc2)c2ccccc2c1=O
Sequence (P08684 whole entry): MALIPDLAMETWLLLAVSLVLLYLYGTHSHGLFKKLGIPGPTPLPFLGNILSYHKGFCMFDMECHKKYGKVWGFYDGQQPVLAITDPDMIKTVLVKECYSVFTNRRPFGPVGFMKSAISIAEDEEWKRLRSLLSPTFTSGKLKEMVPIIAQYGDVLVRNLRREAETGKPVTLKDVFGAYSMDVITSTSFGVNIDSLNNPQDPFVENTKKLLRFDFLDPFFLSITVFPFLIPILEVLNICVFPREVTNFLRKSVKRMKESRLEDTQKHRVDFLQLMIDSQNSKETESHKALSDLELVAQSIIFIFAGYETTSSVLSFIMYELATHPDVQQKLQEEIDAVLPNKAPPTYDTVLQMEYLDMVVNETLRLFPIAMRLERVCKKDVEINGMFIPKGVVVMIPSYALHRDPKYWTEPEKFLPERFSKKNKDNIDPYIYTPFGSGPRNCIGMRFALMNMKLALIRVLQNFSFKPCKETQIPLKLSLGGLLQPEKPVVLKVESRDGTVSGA
Return: > 10 µM
